# TEST_NAME: Thermodynamic solubility in PBS (pH 7.4)
# Assay type: physicochemical
# EXPERIMENTAL_CONTEXT: phosphate buffered saline, pH 7.4, Table 1; PBS pH 7.4, 24 hours at 22° C., ±S.D.; read-out: Solubility (aq.)
Non-standard residues stand in square brackets, D forms with d. Residues, ends and D or L forms follow the SMILES beside them. Aib = CC(C)(N)C(=O)O
Reported solubility thermodynamic at 24 h by item:
// return numeric value only (unit: µM, not printed)

Solved entries:
- MOLECULE: "CC(C)[C@H](NC(=O)[C@@H](NC(=O)[C@@H]1CCCN1C(=O)[C@@H]1CCCN1C(=O)[C@H](Cc1c[nH]c2ccccc12)NC(=O)[C@H](Cc1ccc(O)cc1)NC(=O)[C@H](C)NC(=O)[C@H](Cc1c[nH]c2ccccc12)NC(=O)[C@H](Cc1c[nH]c2ccccc12)NC(=O)C(C)(C)NC(=O)C(C)(C)NC(=O)C(C)(C)NC(=O)C(C)(C)N)C(C)C)C(N)=O [Compound 44] (H-[Aib][Aib][Aib][Aib]WWAYWPPVV-NH2)"
  solubility thermodynamic at 24 h [µM]: 22
- MOLECULE: "CC(=O)NC(C)(C)C(=O)NC(C)(C)C(=O)NC(C)(C)C(=O)NC(C)(C)C(=O)N[C@@H](Cc1c[nH]c2ccccc12)C(=O)N[C@@H](Cc1c[nH]c2ccccc12)C(=O)N[C@@H](C)C(=O)N[C@@H](Cc1ccc(O)cc1)C(=O)N[C@@H](Cc1c[nH]c2ccccc12)C(=O)N1CCC[C@H]1C(=O)N1CCC[C@H]1C(=O)N[C@H](C(=O)N[C@@H](C)C(N)=O)C(C)C [Compound 42] (Ac-[Aib][Aib][Aib][Aib]WWAYWPPVA-NH2)"
  solubility thermodynamic at 24 h [µM]: 11

# context switch: different molecule, same solubility thermodynamic at 24 h
Give the measured solubility thermodynamic at 24 h of CC(=O)NC(C)(C)C(=O)NC(C)(C)C(=O)NC(C)(C)C(=O)N[C@@H](Cc1c[nH]c2ccccc12)C(=O)N[C@@H](Cc1c[nH]c2ccccc12)C(=O)N[C@@H](C)C(=O)N[C@@H](Cc1ccc(O)cc1)C(=O)N[C@@H](Cc1c[nH]c2ccccc12)C(=O)N1CCC[C@H]1C(=O)N1CCC[C@H]1C(=O)N[C@H](C(=O)N[C@@H](C)C(N)=O)C(C)C [Compound 41] (Ac-[Aib][Aib][Aib]WWAYWPPVA-NH2) .
24

---

# TEST_NAME: Thermodynamic solubility in PBS (pH 7.4)
# Type: physicochemical
# EXPERIMENTAL_CONTEXT: phosphate buffered saline, pH 7.4, Table 3; PBS pH 7.4, 24 h at 22° C.; read-out: Solubility
Non-standard residues stand in square brackets, D forms with d. Residues, ends and D or L forms follow the SMILES beside them. Aib = CC(C)(N)C(=O)O
READOUT_LABEL: solubility thermodynamic at 24 h

- COMPOUND: "CC(C)[C@H](NC(=O)[C@@H](NC(=O)[C@@H]1CCCN1C(=O)[C@@H]1CCCN1C(=O)[C@H](Cc1c[nH]c2ccccc12)NC(=O)[C@H](Cc1ccc(O)cc1)NC(=O)[C@H](C)NC(=O)[C@H](Cc1c[nH]c2ccccc12)NC(=O)[C@H](C)NC(=O)C(C)(C)NC(=O)C(C)(C)NC(=O)C(C)(C)NC(=O)C(C)(C)N)C(C)C)C(N)=O [Compound 45] (H-[Aib][Aib][Aib][Aib]AWAYWPPVV-NH2)"
  solubility thermodynamic at 24 h: "86 µM"
- COMPOUND: "CC(C)[C@H](NC(=O)[C@@H](NC(=O)[C@@H]1CCCN1C(=O)[C@@H]1CCCN1C(=O)[C@H](Cc1ccc(O)cc1)NC(=O)[C@H](Cc1c[nH]c2ccccc12)NC(=O)[C@H](C)NC(=O)[C@H](Cc1c[nH]c2ccccc12)NC(=O)[C@H](Cc1c[nH]c2ccccc12)NC(=O)C(C)(C)NC(=O)C(C)(C)NC(=O)C(C)(C)NC(=O)C(C)(C)N)C(C)C)C(N)=O [Compound 54] (H-[Aib][Aib][Aib][Aib]WWAWYPPVV-NH2)"
  solubility thermodynamic at 24 h: "8 µM"
- COMPOUND: "CC(C)[C@H](NC(=O)[C@@H](NC(=O)[C@H](C)NC(=O)[C@@H]1CCCN1C(=O)[C@H](Cc1c[nH]c2ccccc12)NC(=O)[C@H](Cc1ccc(O)cc1)NC(=O)[C@H](C)NC(=O)[C@H](Cc1c[nH]c2ccccc12)NC(=O)[C@H](Cc1c[nH]c2ccccc12)NC(=O)C(C)(C)NC(=O)C(C)(C)NC(=O)C(C)(C)NC(=O)C(C)(C)N)C(C)C)C(N)=O [Compound 50] (H-[Aib][Aib][Aib][Aib]WWAYWPAVV-NH2)"
  solubility thermodynamic at 24 h: "22 µM"

# context switch: different compound, same solubility thermodynamic at 24 h
Give the measured solubility thermodynamic at 24 h of CC(C)[C@H](NC(=O)[C@@H](NC(=O)[C@@H]1CCCN1C(=O)[C@@H]1CCCN1C(=O)[C@H](Cc1c[nH]c2ccccc12)NC(=O)[C@H](Cc1ccc(O)cc1)NC(=O)[C@H](C)NC(=O)[C@H](Cc1c[nH]c2ccccc12)NC(=O)[C@H](Cc1c[nH]c2ccccc12)NC(=O)C(C)(C)NC(=O)C(C)(C)NC(=O)C(C)(C)NC(=O)C(C)(C)N)C(C)C)C(N)=O [Compound 44] (H-[Aib][Aib][Aib][Aib]WWAYWPPVV-NH2) .
22 µM
